experiment: IUF_NPC2-5_cytotoxicity_72hr: Cytotoxicity Assessment at 72 hours in the Leibniz Research Institute for Environmental Medicine (IUF) Neural Progenitor Cell Migration and Differentiation Assay for Cytotoxicity (NPC2-5) (AID 2284306);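 also: LDH release into supernatant measured by resorufin fluorescence marking membrane damage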
Results filed as inconclusive are left out. The source made the active and inactive calls. The calls were made as follows: active = hit-call score of the fitted dose curve at least 0.9, where 1 is the maximum; inconclusive = response in the unintended direction; inactive = score below 0.9.
endpoint: outcome

# count of solved cases: 4
O=S(=O)(O)C(F)(F)C(F)(F)C(F)(F)C(F)(F)F ... inactive
CCOP(=S)(OCC)SCSC(C)(C)C ... inactive
C=CC(N)=O ... inactive
O=S(=O)(O)C(F)(F)C(F)(F)C(F)(F)C(F)(F)C(F)(F)C(F)(F)F ... inactive

Now let's try a different one.
The recorded outcome for entry CO/C=C(/C(=O)OC)c1ccccc1COc1cccc(C(F)(F)F)n1 equals inactive
